# experiment summary: Solubility limits of LCA and UDCA in organic solvents
# Type: physicochemical
# assay context: organic solvent, organic solvent or mixture, thermodynamic from solid, hexane/EtOAc + 0.01% trifluoroacetic acid (TFA); read-out: solubility limit
quantity: solubility

Item: C[C@H](CCC(=O)O)[C@H]1CC[C@H]2[C@@H]3[C@@H](O)C[C@@H]4C[C@H](O)CC[C@]4(C)[C@H]3CC[C@]12C [UDCA, ursodeoxycholic acid] | solubility: < 800 µg/mL

---

# experiment summary: Solubility limits of LCA and UDCA in organic solvents
# Assay type: physicochemical
# assay context: organic solvent, organic solvent or mixture, thermodynamic from solid, CHCl3; read-out: solubility limit
quantity: solubility

Entry C[C@H](CCC(=O)O)[C@H]1CC[C@H]2[C@@H]3[C@@H](O)C[C@@H]4C[C@H](O)CC[C@]4(C)[C@H]3CC[C@]12C , solubility reported as 2900 µg/mL
